Values compiled from patent US11667621B2.

tested.on: HA-ERα wild type (Homo sapiens, UniProt P03372)
Construct: HA; expressed in transfected cells
Sequence (P03372 1-595): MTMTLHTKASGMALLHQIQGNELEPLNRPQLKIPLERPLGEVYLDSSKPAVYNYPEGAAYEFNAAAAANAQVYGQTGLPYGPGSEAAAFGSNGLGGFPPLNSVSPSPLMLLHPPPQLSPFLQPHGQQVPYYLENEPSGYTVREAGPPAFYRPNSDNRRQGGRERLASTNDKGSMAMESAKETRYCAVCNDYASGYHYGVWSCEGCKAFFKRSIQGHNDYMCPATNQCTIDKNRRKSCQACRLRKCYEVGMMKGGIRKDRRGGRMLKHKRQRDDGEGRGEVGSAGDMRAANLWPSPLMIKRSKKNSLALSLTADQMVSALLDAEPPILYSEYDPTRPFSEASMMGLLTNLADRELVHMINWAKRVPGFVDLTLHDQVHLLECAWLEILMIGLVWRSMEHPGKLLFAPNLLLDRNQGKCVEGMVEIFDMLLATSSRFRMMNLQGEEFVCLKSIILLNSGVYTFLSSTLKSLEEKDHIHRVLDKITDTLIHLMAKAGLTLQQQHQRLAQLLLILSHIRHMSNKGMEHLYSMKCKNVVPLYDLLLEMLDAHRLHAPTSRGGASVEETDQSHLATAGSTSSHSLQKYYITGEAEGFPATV
assay: Luciferase assay, overexpressed ER (3×-ERE-TATA-Luciferase reporter)
Assay type: cell-based
protocol.conditions: compound concentration 1 μM, 24 hours; read-out: Overexpressed ER (% Inhibition) WT
True means recorded inhibition at 1 µM is 50% or above; False means it is below 50%.

| compound | discrete.label |
| --- | --- |
| Cc1c(-c2ccc(O)cc2)n(Cc2ccc(OCCCCNC(=O)[C@H]3CC[C@H](C(F)(F)F)CC3)cc2)c2ccc(O)cc12 [Example 20] | True |
| O=C(COc1cccc2c1C(=O)N(C1CCC(=O)NC1=O)C2=O)NCCCCCCOc1ccc(C(=C2C3CC4CC(C3)CC2C4)c2ccc(O)cc2)cc1 (stereo not shown) [Example 16] | True |
| O=C(NCCCCOc1ccc(C(=C2C3CC4CC(C3)CC2C4)c2ccc(O)cc2)cc1)C1CC1 [Example 31] | False |
| O=C(CCC1CCCCC1)NCCCCOc1ccc(Oc2c(-c3ccc(O)cc3)sc3cc(O)ccc23)cc1 [Example 30] | True |
| O=C(NCCCCOc1ccc(Oc2c(-c3ccc(O)cc3)sc3cc(O)ccc23)cc1)C1CCC1 [Example 28] | False |
| O=C(NCCCCOc1ccc(C(=C2CCCCC2)c2ccc(O)cc2)cc1)C12CC3CC(CC(C3)C1)C2 [Example 26] | True |
| O=C(CCC1CCCCC1)NCCCCOc1ccc(C(=C2C3CC4CC(C3)CC2C4)c2ccc(O)cc2)cc1 [Example 34] | True |

---

tested.on: HA-ERα Y537S (Homo sapiens, UniProt P03372, Y537S)
Construct: HA; expressed in transfected cells
assay: Luciferase assay, overexpressed ER (3×-ERE-TATA-Luciferase reporter)
Assay type: cell-based
protocol.conditions: compound concentration 1 μM, 24 hours
Quick reference: inhibition at 1 µM of the listed items.
assay.readout: inhibition at 1 µM (%)

| molecule | assay.readout | readout.unit | test.value |
| --- | --- | --- | --- |
| O=C(NCCCCOc1ccc(C(=C2CCCCC2)c2ccc(O)cc2)cc1)[C@H]1CC[C@H](C(F)(F)F)CC1 | inhibition at 1 µM | % | -39 |
| O=C(NCCCCOc1ccc(Oc2c(-c3ccc(O)cc3)sc3cc(O)ccc23)cc1)C1CC(F)(F)C1 | inhibition at 1 µM | % | 1 |
| O=C(COc1cccc2c1C(=O)N(C1CCC(=O)NC1=O)C2=O)NCCCCCCOc1ccc(C(=C2C3CC4CC(C3)CC2C4)c2ccc(O)cc2)cc1 (stereo not drawn) | inhibition at 1 µM | % | -65 |
| O=C(NCCCCOc1ccc(C(=C2C3CC4CC(C3)CC2C4)c2ccc(O)cc2)cc1)C1CCCCCC1 | inhibition at 1 µM | % | 58 |
| O=C(NCCCCOc1ccc(C(=C2C3CC4CC(C3)CC2C4)c2ccc(O)cc2)cc1)C1CCC(F)(F)CC1 | inhibition at 1 µM | % | 46 |
| O=C1CCC(N2C(=O)c3cccc(OCCOCCOc4ccc(C(=C5C6CC7CC(C6)CC5C7)c5ccc(O)cc5)cc4)c3C2=O)C(=O)N1 (stereo not drawn) | inhibition at 1 µM | % | -136 |
| O=C(NCCCCOc1ccc(C(=C2C3CC4CC(C3)CC2C4)c2ccc(O)cc2)cc1)C1CCC1 | inhibition at 1 µM | % | 11 |
| O=C1CCC(N2C(=O)c3cccc(OCCOCCOCCOc4ccc(C(=C5C6CC7CC(C6)CC5C7)c5ccc(O)cc5)cc4)c3C2=O)C(=O)N1 (stereo not drawn) | inhibition at 1 µM | % | -75 |
| CC12CC3CC(C)(C1)CC(C(=O)NCCCCOc1ccc(C(=C4C5CC6CC(C5)CC4C6)c4ccc(O)cc4)cc1)(C3)C2 | inhibition at 1 µM | % | 46 |
| O=C(NCCCCOc1ccc(Oc2c(-c3ccc(O)cc3)sc3cc(O)ccc23)cc1)[C@H]1CC[C@H](C(F)(F)F)CC1 | inhibition at 1 µM | % | 95 |
| O=C(COc1cccc2c1C(=O)N(C1CCC(=O)NC1=O)C2=O)NCCCCOc1ccc(C(=C2C3CC4CC(C3)CC2C4)c2ccc(O)cc2)cc1 (stereo not drawn) | inhibition at 1 µM | % | -51 |
| O=C(NCCCCOc1ccc(C(=C2CCCCC2)c2ccc(O)cc2)cc1)C12CC3CC(CC(C3)C1)C2 | inhibition at 1 µM | % | -32 |
| O=C(NCCCCOc1ccc(C(=C2C3CC4CC(C3)CC2C4)c2ccc(O)cc2)cc1)C12CC3CC(CC(C3)C1)C2 | inhibition at 1 µM | % | 62 |
| O=C(NCCCCOc1ccc(C(=C2C3CC4CC(C3)CC2C4)c2ccc(O)cc2)cc1)C1CCCCC1 | inhibition at 1 µM | % | 86 |
| O=C(NCCCCOc1ccc(C(=C2CCCCC2)c2ccc(O)cc2)cc1)C1CCC1 | inhibition at 1 µM | % | -160 |
| O=C(NCCCCOc1ccc(C(=C2CCCCC2)c2ccc(O)cc2)cc1)C1CCCCC1 | inhibition at 1 µM | % | -169 |
| O=C(NCCCCOc1ccc(C(=C2C3CC4CC(C3)CC2C4)c2ccc(O)cc2)cc1)[C@H]1CC[C@H](C(F)(F)F)CC1 | inhibition at 1 µM | % | 26 |
| O=C(NCCCCOc1ccc(C(=C2C3CC4CC(C3)CC2C4)c2ccc(O)cc2)cc1)[C@H]1C[C@@H]2C=C[C@H]1C2 | inhibition at 1 µM | % | 33 |
| O=C(NCCCCOc1ccc(C(=C2C3CC4CC(C3)CC2C4)c2ccc(O)cc2)cc1)C12CC3CC(CC1C3)C2 | inhibition at 1 µM | % | 31 |
| O=C(NCCCCOc1ccc(Oc2c(-c3ccc(O)cc3)sc3cc(O)ccc23)cc1)C1CCC1 | inhibition at 1 µM | % | -64 |
| CC(C)(C)OC(=O)N[C@@H](Cc1c[nH]c2ccccc12)C(=O)NCCCCOc1ccc(C(=C2C3CC4CC(C3)CC2C4)c2ccc(O)cc2)cc1 | inhibition at 1 µM | % | 62 |

---

Some compounds, each annotated with its measured inhibition at 1 µM.
tested.on: HA-ERα wild type (Homo sapiens, UniProt P03372)
Construct: HA; expressed in transfected cells
Sequence (P03372 1-595): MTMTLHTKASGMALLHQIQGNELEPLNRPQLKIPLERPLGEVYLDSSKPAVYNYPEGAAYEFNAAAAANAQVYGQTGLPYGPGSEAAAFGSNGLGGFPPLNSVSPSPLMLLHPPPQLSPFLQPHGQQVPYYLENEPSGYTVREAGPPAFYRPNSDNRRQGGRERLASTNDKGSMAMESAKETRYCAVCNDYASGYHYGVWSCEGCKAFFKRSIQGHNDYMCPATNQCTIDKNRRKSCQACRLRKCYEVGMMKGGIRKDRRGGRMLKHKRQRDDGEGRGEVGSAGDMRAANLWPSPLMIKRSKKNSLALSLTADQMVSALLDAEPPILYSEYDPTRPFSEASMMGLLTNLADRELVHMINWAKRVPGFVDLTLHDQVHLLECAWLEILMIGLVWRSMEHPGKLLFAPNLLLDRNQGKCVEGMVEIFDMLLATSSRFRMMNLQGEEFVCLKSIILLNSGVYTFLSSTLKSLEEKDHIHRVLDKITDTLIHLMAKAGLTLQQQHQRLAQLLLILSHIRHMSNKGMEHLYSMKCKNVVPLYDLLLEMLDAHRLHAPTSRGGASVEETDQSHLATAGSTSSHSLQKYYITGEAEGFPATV
assay: Luciferase assay, overexpressed ER (3×-ERE-TATA-Luciferase reporter)
Type: cell-based
protocol.conditions: compound concentration 1 μM, 24 hours; read-out: Overexpressed ER (% Inhibition) WT

| compound | inhibition at 1 µM, % |
| --- | --- |
| Cc1c(-c2ccc(O)cc2)n(Cc2ccc(OCCCCNC(=O)C34CC5CC(CC(C5)C3)C4)cc2)c2ccc(O)cc12 | 82 |
| O=C(NCCCCOc1ccc(C(=C2C3CC4CC(C3)CC2C4)c2ccc(O)cc2)cc1)C1CCC(F)(F)CC1 | 90 |
| O=C(NCCCCOc1ccc(C2c3ccc(O)cc3CCC2c2ccccc2)cc1)[C@H]1CC[C@H](C(F)(F)F)CC1 (stereo partly drawn) | -130 |
